IC50 by entry:
# Target or test system: 5-HT6 receptor (Homo sapiens (Human))
# Sequence (P50406 whole entry): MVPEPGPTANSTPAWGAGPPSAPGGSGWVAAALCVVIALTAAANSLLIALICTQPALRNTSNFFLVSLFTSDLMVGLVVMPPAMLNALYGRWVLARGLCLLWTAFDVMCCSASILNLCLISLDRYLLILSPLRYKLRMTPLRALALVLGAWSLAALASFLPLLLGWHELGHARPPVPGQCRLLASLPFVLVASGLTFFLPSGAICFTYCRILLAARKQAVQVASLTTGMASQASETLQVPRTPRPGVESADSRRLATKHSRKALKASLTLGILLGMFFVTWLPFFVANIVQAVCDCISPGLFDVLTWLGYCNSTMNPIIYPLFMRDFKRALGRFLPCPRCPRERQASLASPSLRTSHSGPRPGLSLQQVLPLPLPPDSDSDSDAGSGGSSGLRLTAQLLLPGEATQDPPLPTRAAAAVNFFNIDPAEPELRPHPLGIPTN
# Method description: Competitive radioligand binding ([3H] Lysergic acid diethylamide) to serotonin 5-HT6 receptors, HeLa cell membranes
# Test settings: 1.5 nM [3H] Lysergic acid diethylamide, 120 min at 37° C.; read-out: IC50 in the setting of competitive binding
# Description: Determination of activity of serotonin 5-HT6 receptor antagonists of the general formula 1 in the setting of competitive binding to serotonin 5-HT6 receptors. Screening of disclosed compounds for their potential ability to interact with serotonin 5-HT6 receptor was carried out by method of radioligand binding. […] Binding of tested compounds to the receptor was determined by their ability to displace the radioligand and expressed in percent of displacement. […]
Endpoint: IC50 (nM)

1) Cc1cc(C)n2nc(C)c(S(=O)(=O)c3ccccc3)c2n1 147
2) CSc1nn2c(C)cc(C)nc2c1S(=O)(=O)c1ccccc1 4.61
3) Cc1cc(C)n2ncc(S(=O)(=O)c3ccccc3)c2n1 510
4) Cc1cc(C)n2nc(OCCO)c(S(=O)(=O)c3ccccc3)c2n1 477

These data points were gathered from patent US8552005B2.
